binders and their reported IC50, FLIPR calcium mobilisation
- Assayed target: mouse nerve growth factor (mouse, UniProt P01139 122-241)
- Sequence (P01139 122-241): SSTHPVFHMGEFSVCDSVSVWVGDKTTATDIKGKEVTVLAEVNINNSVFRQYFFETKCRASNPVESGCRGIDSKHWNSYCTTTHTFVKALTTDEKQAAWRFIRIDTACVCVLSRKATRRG
- Method notes: cell-based or functional assay

[
  {
    "Binder": "1150F1 human IgG4 (antibody, V domains shown) VH: EVQLVQSGAEVKKPGSSVKVSCKASGGTFSTYGISWVRQAPGQGLEWIGGIIPIFDTGNSAQSFQDRVTITADESTSTAYMEVGSLRSDDTAVYYCASSSRIYDLNPSLTAYYDMDVWGHGTMVTVSS VL: QAVLTQPSSVSTPPGQKVTISCSGSSSNIGNNYVSWYQQLPGTAPKLLIYDNNKRPSGIPDRFSGSKSGTSATLGITGLQTGDEADYYCGTWDSSLSAWVFGGGTKLTVL",
    "Unit tag": "nM",
    "IC50, FLIPR calcium mobilisation": 0.19
  },
  {
    "Binder": "1132H9 human IgG4 (antibody, V domains shown) VH: EVQLVQSGAEVKKPGSSVKVSCKASGGTFSTYGISWVRQAPGQGLEWIGGIIPIFDTGNSAQSFQGRVTITADESTSTAYMEVSSLRSDDTAVYYCASSSRIYDLNPSLTAYYDMDVWGQGTMVTVSS VL: QAVLTQPSSVSTPPGQKVTISCSGSSSDIGNNYVSWYQQLPGTAPKLLIYDNNKRPTGIPDRFSGSKSGTSATLGITGLQTGDEADYYCGTWDSSLSAWVFGGGTKLTVL",
    "Unit tag": "nM",
    "IC50, FLIPR calcium mobilisation": 0.16
  },
  {
    "Binder": "1252A5 IgG4 (antibody, V domains shown, tested as whole human IgG4; also called germlined 1133C11) VH: QVQLVQSGAEVKKPGSSVKVSCKASGGTFSTYGISWVRQAPGQGLEWMGGIIPIFDTGNSAQSFQGRVTITADESTSTAYMELSSLRSEDTAVYYCARSSRIYDLNPSLTAYYDMDVWGQGTMVTVSS VL: QSVLTQPPSVSAAPGQKVTISCSGSSSNIGNNYVSWYQQLPGTAPKLLIYDNNKRPSGIPDRFSGSKSGTSATLGITGLQTGDEADYYCGTWDSSLSAWVFGGGTKLTVL",
    "Unit tag": "nM",
    "IC50, FLIPR calcium mobilisation": 0.26
  },
  {
    "Binder": "1214D10 human IgG4 (antibody, V domains shown) VH: EVQLVQSGAEAKKPGSSVKVSCKASGGTFSTYGISWVRQAPGRGLEWIGGIIPIFDTGNSAQSFQGRVAITADESTSTAYMEVSSLRSDDTAVYYCASSSRIYDAHLNHHGYYDMDVWGQGTMVTVSS VL: QAVLTQPSSVSTPPGQKVTISCSGSSSNIGNNYVSWYQQLPGTAPKLLIYDNNKRPSGIPDRFSGSKSGTSATLGITGLQAGDEADYYCGTWDSSLSAWVFGGGTKLTVL",
    "Unit tag": "nM",
    "IC50, FLIPR calcium mobilisation": 0.13
  },
  {
    "Binder": "1155H1 human IgG4 (antibody, V domains shown) VH: EVQLVQSGAEVKKPGSSVKVSCKASGGTFSTYGISWVRQAPGQGLEWIGGIIPIFDTGNSAQSFQGRVTITADESTSTAYMEVSSLRSDDTAVYYCASSSRIYDFHLANKGYYDMDVWGQGTMVTVSS VL: QAVLTQPSSVSTPPGQKATISCSGSSSNIGNNYVSWYQQLPGTAPKLLIYDNNKRPSGIPDRFSGSKSGTSATLDITGLQTGDEADYYCGTWDSSLSAWVFGGGTKLTVL",
    "Unit tag": "nM",
    "IC50, FLIPR calcium mobilisation": 0.18
  },
  {
    "Binder": "1211G10 human IgG4 (antibody, V domains shown) VH: EVQLVQSGAEVRKPGSSVKVSCKAYGGTFSTYGISWVRQAPGQGLEWVGGIIPIFDTRNSAQSFQGRVTITADESTSTAYMEVSSLRSDDTAVYYCASSSRIYDMVSTLIPYYDMDVWGQGTMVTVSS VL: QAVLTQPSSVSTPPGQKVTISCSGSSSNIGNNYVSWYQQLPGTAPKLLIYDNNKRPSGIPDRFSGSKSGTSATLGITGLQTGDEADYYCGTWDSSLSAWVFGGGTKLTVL",
    "Unit tag": "nM",
    "IC50, FLIPR calcium mobilisation": 0.15
  },
  {
    "Binder": "1131D7 human IgG4 (antibody, V domains shown) VH: EVQLVQSGAEVKKPGSSVKVSCKASGGTFSTYGISWVRQAPGQGLEWIGGIIPIFDTGNSAQSFQGRVTITADESTSTAYMEVSSLRSDDTAVYYCASSSRIYDFNSSLIAYYDMDVWGQGTMVTVSS VL: QAVLTQPSSVSTPPGQKVTISCSGSSSNIGNNYVSWYQQLPGTAPKLLIYDNNKRPSGIPDRFSGSKSGTSATLGITGLQTGDETDYYCGTWDSSLSAWVFSGGTKLTVL",
    "Unit tag": "nM",
    "IC50, FLIPR calcium mobilisation": 71
  },
  {
    "Binder": "1146D7 human IgG4 (antibody, V domains shown) VH: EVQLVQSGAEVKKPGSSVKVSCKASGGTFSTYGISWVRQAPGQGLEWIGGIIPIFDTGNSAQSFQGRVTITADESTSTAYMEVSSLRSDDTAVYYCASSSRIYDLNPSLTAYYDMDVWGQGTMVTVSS VL: QAVLTQPSSVSTPPGQEVTISCSGSSTNIGNNYVSWYQQLPGTAPKLLIYDNNKRPSGIPDRFSGSKSGTSATLGITGLQTGDEADYYCGTWDSSLSAWVFGGGTKLTVL",
    "Unit tag": "nM",
    "IC50, FLIPR calcium mobilisation": 0.31
  }
]
